Measured Target: A156T mutant of the HCV NS3/4A 1b protease enzyme (Hepatitis C virus genotype 1b, UniProt P26663, A1182T)
Construct: 10× stocks of NS3/4A protease enzyme from Bioenza (Mountain View, Calif.); purchased Bioenza (Mountain View, Calif.)
Assay Overview: HCV Protease FRET Assay (IC50), A156T mutant
Assay type: biochemical
Condition Context: A156T enzyme, FRET assay; read-out: Inhibition, HCV A156T
Parameter: IC50

Prompt line: Need IC50, item C=C[C@@H]1C[C@]1(NC(=O)[C@@H]1C[C@@H](Oc2cc(-c3ccccc3)nc3cc(OC)ccc23)CN1C(=O)[C@H](CNC(=O)CC)NC(=O)OC(C)(C)C)C(=O)NS(=O)(=O)c1ccccc1
Response line: 10 to 100 nM

* * *

Overview of reported IC50 across a group of molecules:
Measured Target: A156T mutant of the HCV NS3/4A 1b protease enzyme (Hepatitis C virus genotype 1b, UniProt P26663, A1182T)
Construct: 10× stocks of NS3/4A protease enzyme from Bioenza (Mountain View, Calif.); purchased Bioenza (Mountain View, Calif.)
Assay Overview: HCV Protease FRET Assay (IC50), A156T mutant
Format: biochemical
Condition Context: read-out: Inhibition, HCV A156T; A156T enzyme, FRET assay

C#CCN(C)C(=O)CCCC(=O)N[C@@H](CNC(=O)C=C)C(=O)N1C[C@H](Oc2cc(-c3ccccc3)nc3cc(OC)ccc23)C[C@H]1C(=O)N[C@]1(C(=O)NS(=O)(=O)c2ccccc2)C[C@H]1C=C : 100 to 1000 nM
C=C[C@@H]1C[C@]1(NC(=O)[C@@H]1C[C@@H](Oc2cc(-c3ccccc3)nc3cc(OC)ccc23)CN1C(=O)[C@H](CNC(=O)/C=C/CN(C)C)NC(=O)OC(C)(C)C)C(=O)NS(=O)(=O)c1ccccc1 : 1000 to 10000 nM
C=C[C@@H]1C[C@]1(NC(=O)[C@@H]1C[C@@H](Oc2cc(-c3ccccc3)nc3cc(OC)ccc23)CN1C(=O)[C@H](Cn1sc2ccccc2c1=O)NC(=O)OC(C)(C)C)C(=O)NS(=O)(=O)c1ccccc1 : 10 to 100 nM

Consider now this further molecule.
Prompt line: Which measured IC50 value corresponds to C=C[C@@H]1C[C@]1(NC(=O)[C@@H]1C[C@@H](Oc2cc(-c3ccccc3)nc3cc(OC)ccc23)CN1C(=O)[C@H](CCNC(=O)CCl)NC(=O)OC(C)(C)C)C(=O)NS(=O)(=O)c1ccccc1 ?
Response line: 10 to 100 nM

* * *

Test system: HCV RNA replicon in cell line ET (luc-ubi-neo/ET), human Huh7 hepatoma
Assay Overview: Luciferase Assay (Example 35), replicon-derived luciferase activity
Type: cell-based
Condition Context: Hepatitis C virus, Huh-7; assay described in Example 35
Parameter: EC50

Would you please look over these solved cases?
C=C[C@@H]1C[C@]1(NC(=O)[C@@H]1C[C@@H](Oc2nccc3cc(OC)ccc23)CN1C(=O)[C@@H](C)NC(=O)CC)C(=O)NS(=O)(=O)C1CC1 [I^R-100] : 1000 to 10000 nM
C=CC(=O)NC[C@H](NC(=O)OC(C)(C)C)C(=O)N1C[C@H](Oc2nccc3ccccc23)C[C@H]1C(=O)N[C@]1(C(=O)NS(=O)(=O)C2CC2)C[C@H]1C=C [Compound I-97] : 100 to 1000 nM
C=CC(=O)N[C@H](C)C(=O)N1C[C@H](Oc2nccc3cc(OC)ccc23)C[C@H]1C(=O)N[C@]1(C(=O)NS(=O)(=O)C2CC2)C[C@H]1C=C [Compound I-100] : 10 to 100 nM
C=C[C@@H]1C[C@]1(NC(=O)[C@@H]1C[C@@H](Oc2nccc3cc(OC)ccc23)CN1C(=O)[C@H](CC(=O)C=C(C)C)NC(=O)OC(C)(C)C)C(=O)NS(=O)(=O)C1CC1 [Compound I-129] : < 10 nM
C=C[C@@H]1C[C@]1(NC(=O)[C@@H]1C[C@@H](Oc2nccc3cc(OC)ccc23)CN1C(=O)[C@H](CCC(=O)C#Cc1ccccc1)NC(=O)OC(C)(C)C)C(=O)NS(=O)(=O)C1CC1 [Compound I-138] : 100 to 1000 nM

Prompt line: Entry C=CC(=O)N[C@@H](C(=O)N1C[C@H](Oc2nccc3cc(OC)ccc23)C[C@H]1C(=O)N[C@]1(C(=O)NS(=O)(=O)C2CC2)C[C@H]1C=C)C(C)(C)O [Compound I-130] : reported EC50 = ?
Response line: 100 to 1000 nM

Cited source for all entries: patent US8309685B2
